pIC50: −log10 of the molar value.
# pIC50 per entry for UniProt P13621

Record excerpt, results attached:
>>> reported_measurement("O=C(/N=C(/Nc1cc(F)cc(Cl)c1)N[C@H]1CCCC[C@H]1O)c1ccc(F)c(F)c1 [Compound 128]")
"> 5.00"
>>> reported_measurement("O=C(/N=C(/NCc1ccc(Cl)c(F)c1)N[C@H]1CC[C@H](O)CC1)c1ccc(F)c(F)c1 [Compound 45]")
"> 5.00"
>>> reported_measurement("O=C(/N=C(/Nc1cccc(Cl)c1)N[C@H]1CC[C@H](O)CC1)c1ccc(Cl)cc1 [Compound 27]")
"< 5.00"

Would you kindly look at the next entry?
[in] Please give the measured pIC50 for this compound: O=C(/N=C(/NCc1cccc(F)c1)N[C@H]1CC[C@H](O)CC1)c1ccc(F)c(F)c1 [Compound 36]
[out] < 5.00
